test system: E21 (patient-derived glioblastoma stem cells of mesenchymal subtype); test: surviving fraction (nuclei count normalised to DMSO); higher = more cells surviving (less toxic); details: 111.1 nM; exposure time: 72 h;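 also: nuclei counted by high-content imaging of Hoechst-stained cells in laminin-coated 384-well plates, relative to 0.1% DMSO vehicle wells, with staurosporine as cell-death control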
Counter-ions that a name gives are not always drawn.
Entries and their measured surviving fraction follow.
Number, no unit, nothing else.

Take a look at these entries with their results.
COc1cc(OC)c(C(=O)CCCN2CCCC2)c(OC)c1 [Buflomedil hydrochloride] | 1.12
CO[C@H]1C(=O)[C@]2(C)[C@@H](OC)C[C@H]3OC[C@@]3(OC(C)=O)[C@H]2[C@H](OC(=O)c2ccccc2)[C@]2(O)C[C@H](OC(=O)[C@H](O)[C@@H](NC(=O)OC(C)(C)C)c3ccccc3)C(C)=C1C2(C)C | 0.325
CN[C@@H](C)C(=O)N[C@H](C(=O)N1CCC[C@H]1C(=O)N[C@H]1c2ccccc2C[C@H]1OCC#CC#CCO[C@@H]1Cc2ccccc2[C@@H]1NC(=O)[C@@H]1CCCN1C(=O)[C@@H](NC(=O)[C@H](C)NC)C1CCCCC1)C1CCCCC1 | 0.721
CC[N+](CC)(CC)CCOc1ccc(/C=C/c2ccccc2)cc1 | 1.05
Cc1ccc(S(=O)(=O)/C=C/C#N)cc1 | 1

Prompt: Supply reported surviving fraction belonging to this compound: `COc1cc2c(NC3CCN(C(C)C)CC3)nc(C3CCCCC3)nc2cc1OCCCN1CCCC1`
Completion: 1.02

Prompt: Give surviving fraction for the following compound: `Oc1c(Cl)cc(Cl)c(Cl)c1Cc1c(O)c(Cl)cc(Cl)c1Cl`
Completion: 0.903
